Listing of entries alongside the reported GI50.
- Test system: SK-MEL-28
- assay_details: NCI tumour cell line growth inhibition, 48 h
Active and inactive are the calls of the source. Cut-off read from the data, not from the text of the source: active = GI50 up to about 1.1 µM and inactive = higher.

Read off the recorded GI50 for CN(C)CCC1(C2=CCCC2)CC/C(=C\c2ccc3c(c2)OCO3)C1=O (configuration not stated)
14.3 µM (inactive)

Read off the recorded GI50 for C=C1CC=CC(C)(C)C1C/C=C(\C)C(O)CBr (configuration not stated)
> 100 µM (inactive)

Read off the recorded GI50 for `COC(=O)c1c(O)ccc2c1c1c(n2Cc2ccc(Cl)cc2Cl)C(=O)c2ccccc2C1`
45.2 µM (inactive)

Read off the recorded GI50 for CC(=O)CCC[C@@H](C)[C@@H]1O[C@H]([C@@]2(C)CCC(=O)O2)C[C@H]2C(CSc3ccccc3)C(=O)O[C@@H]12 (some centres not stated)
18.7 µM (inactive)

Read off the recorded GI50 for `C[C@H](CCC(=O)O)[C@H]1CC[C@H]2[C@@H]3[C@H](O)[C@H](O)[C@@H]4C[C@H](O)CC[C@]4(C)[C@H]3CC[C@]12C`
> 100 µM (inactive)

Read off the recorded GI50 for CCCC(=O)[O-].[Na+] [SODIUM BUTYRATE]
4170 µM (inactive)

Read off the recorded GI50 for COC(=O)C1=C(OC(=O)c2ccccc2)C(C(=O)OC)[C@@]2(O)[C@@H](C(=O)OC)[C@H](C)C[C@@H]1[C@@H]2C(=O)OC (some centres not stated)
27.2 µM (inactive)

Read off the recorded GI50 for `Clc1ccccc1NN(Cc1ccncc1)c1ccccc1Cl`
20.3 µM (inactive)

Read off the recorded GI50 for CC1(C23CC4CC(CC(C4)C2)C3)n2c(=O)n(-c3ccccc3)c(=O)n2C1(C)C12CC3CC(CC(C3)C1)C2 (configuration not stated)
> 100 µM (inactive)

Read off the recorded GI50 for CCCCC(C(=O)C(=O)NC1C2CC3CC(C2)CC1C3)C(=O)C(C)C (configuration not stated)
> 100 µM (inactive)

Read off the recorded GI50 for NCC(=O)OCN1C(=O)C2C3C=CC(C2C1=O)C1C2C(=O)N(COC(=O)CN)C(=O)C2C31 (configuration not stated)
19.5 µM (inactive)

Read off the recorded GI50 for `O=C(O)Cc1ccc(Oc2nc3ccccc3nc2C(=O)O)cc1`
> 100 µM (inactive)

----------
- System: SF-539
- assay_details: NCI tumour cell line growth inhibition, 48 h
The source made the active and inactive calls. Cut-off read from the data, not from the text of the source: active = GI50 up to about 1.1 µM and inactive = higher. Square brackets hold non-standard residues; d marks the D form. Peptide text beside a SMILES is read from it. * marks the point of attachment. Tyr(3-Br) = N[C@@H](Cc1ccc(O)c(Br)c1)C(=O)O; Boc = CC(C)(C)OC(=O)*
measured_parameter: GI50

Recorded GI50, per entry:
{"compound": "COc1cc(/C=C/c2ccnc3ccccc23)cc(OC)c1OC", "GI50": "3.78 µM (inactive)"}
{"compound": "O=C(O)[C@@H]1CCCC[C@@H]1C(=O)N(C1CCCCC1)C1CCCCC1", "GI50": "> 100 µM (inactive)"}
{"compound": "Clc1ccccc1/C=C\\C1(c2ccccc2)OCCO1", "GI50": "24.9 µM (inactive)"}
{"compound": "CC(=O)N(O)Cc1ccccc1", "GI50": "> 100 µM (inactive)"}
{"compound": "CC1(C23CC4CC(CC(C4)C2)C3)n2c(=O)n(-c3ccccc3)c(=O)n2C1(C)C12CC3CC(CC(C3)C1)C2 (centres undefined)", "GI50": "> 100 µM (inactive)"}

Look up and report GI50, with SF-539 as system, for `CCc1n[nH]c(=O)n1NC(=O)CCCC(=O)O`
> 100 µM (inactive)

Look up and report GI50, with SF-539 as system, for COC(=O)[C@H](Cc1ccc(O)c(Br)c1)NC(=O)[C@H](Cc1ccc(O)cc1)NC(=O)OC(C)(C)C (Boc-Tyr-[Tyr(3-Br)]-OMe)
28.7 µM (inactive)

Look up and report GI50, with SF-539 as system, for `NS(=O)(=O)c1ccc(NC(=O)c2cccc3cc4ccccc4nc23)cc1`
13.8 µM (inactive)

Look up and report GI50, with SF-539 as system, for `Cc1ccc(Oc2cc(C)ccc2P(=O)(O)O)cc1`
> 100 µM (inactive)

Look up and report GI50, with SF-539 as system, for `Cc1cc(N(CCC#N)CCC#N)ccc1/N=N/c1ccc([N+](=O)[O-])cc1`
> 100 µM (inactive)

Look up and report GI50, with SF-539 as system, for CCOC(=O)C(NC(=O)CC(C)C)(Nc1ccc(S(=O)(=O)Nc2nc(C)cc(C)n2)cc1)C(F)(F)F (centres undefined)
> 100 µM (inactive)

Look up and report GI50, with SF-539 as system, for C[C@H](CCC(=O)O)[C@H]1CC[C@H]2[C@@H]3[C@H](O)[C@H](O)[C@@H]4C[C@H](O)CC[C@]4(C)[C@H]3CC[C@]12C [HYOCHOLIC ACID]
> 100 µM (inactive)

Look up and report GI50, with SF-539 as system, for `CC(C)NC1(C(N)=O)CCN(Cc2ccccc2)CC1`
> 100 µM (inactive)

Look up and report GI50, with SF-539 as system, for COCCOCCOCCC(=O)NC1CC2CCC1(C)C2(C)C (centres undefined)
> 100 µM (inactive)

Look up and report GI50, with SF-539 as system, for C=CC12CN(C)C3C4COC(CC41)C1(C(=O)Nc4ccccc41)C32 (centres undefined)
> 200 µM (inactive)

Look up and report GI50, with SF-539 as system, for O=C(O)CN(CC(=O)O)C1CCCCC1N1CC(=O)OC(=O)C1 (centres undefined)
> 100 µM (inactive)

Look up and report GI50, with SF-539 as system, for `CCOC(=O)N1C/C(=C\c2ccc(N(C)C)cc2)C(=O)/C(=C/c2ccc(N(C)C)cc2)C1`
> 100 µM (inactive)

Look up and report GI50, with SF-539 as system, for CCCCC(C(=O)C(=O)NC1C2CC3CC(C2)CC1C3)C(=O)C(C)C (centres undefined)
> 100 µM (inactive)

Look up and report GI50, with SF-539 as system, for CC1CC[C@]2(C(=O)O)CCC3(C)C(=CC(=O)C4[C@@]5(C)CCC(=O)C(C)(C)C5CC[C@]43C)[C@@H]2[C@H]1C (some centres undefined)
18.9 µM (inactive)

Look up and report GI50, with SF-539 as system, for `CN(C)c1ccc(O[Si](Oc2ccc(N(C)C)cc2)(Oc2ccc(N(C)C)cc2)Oc2ccc(N(C)C)cc2)cc1`
> 100 µM (inactive)

Look up and report GI50, with SF-539 as system, for `O=c1c(Cc2ccc(Cc3c(O)oc4ccccc4c3=O)cc2)c(O)oc2ccccc12`
> 100 µM (inactive)

Look up and report GI50, with SF-539 as system, for `COC(=O)c1cc(C)n(CN(Cc2ccccc2)Cn2nc(C(=O)OC)cc2C)n1`
> 45.9 µM (inactive)

Look up and report GI50, with SF-539 as system, for C=C(C)C(=O)OC1C/C(CO)=C\C(O)C/C(C)=C/C2OC(=O)C(=C)C21 (centres undefined)
21 µM (inactive)

Look up and report GI50, with SF-539 as system, for `CCOC(=O)C1=C(Nc2ccc(NC3=C(C(=O)OCC)C(=O)CS3)cc2)SCC1=O`
20.1 µM (inactive)

----------
- System: SK-MEL-5
- assay_details: NCI tumour cell line growth inhibition, 48 h
Calls of active or inactive are those of the source. Cut-off read from the data, not from the text of the source: active = GI50 up to about 1.1 µM and inactive = higher.
measured_parameter: GI50

{"molecule": "COC(=O)c1c(O)ccc2c1c1c(n2Cc2ccc(Cl)cc2Cl)C(=O)c2ccccc2C1", "GI50": "89.5 µM (inactive)"}
{"molecule": "Cc1ccc(NC(=O)C(=O)C(C(=O)c2ccc3ccccc3c2)C2OC(=O)c3ccccc32)cc1C (stereo not drawn)", "GI50": "15.2 µM (inactive)"}
{"molecule": "Cc1ccc(S(=O)(=O)N/N=C\\c2c3ccccc3[n+]([O-])c3ccccc23)cc1", "GI50": "5.21 µM (inactive)"}
{"molecule": "Cn1cnc(/C=C/C#N)c1", "GI50": "> 100 µM (inactive)"}
{"molecule": "CC1(C)OC(C(C)(C)O)C(C(C)(C)O)O1 (stereo not drawn)", "GI50": "> 100 µM (inactive)"}
{"molecule": "CSc1nncc(-c2cc3c(c(SC)n2)CCCC3)n1", "GI50": "> 100 µM (inactive)"}
{"molecule": "Cc1cccc2c1C(=O)C1(Cc3ccccc3C1=O)C2 (stereo not drawn)", "GI50": "> 100 µM (inactive)"}
{"molecule": "CC(C)(O)/C=C\\P(C)(=O)c1ccccc1 (stereo not drawn)", "GI50": "> 100 µM (inactive)"}
{"molecule": "C=CC12CN(C)C3C4COC(CC41)C1(C(=O)Nc4ccccc41)C32 (stereo not drawn)", "GI50": "> 200 µM (inactive)"}
{"molecule": "CCOC(=O)c1c(N2CCCC2)nsc1Nc1ccc(F)cc1", "GI50": "18 µM (inactive)"}

Read off the recorded GI50 for `CCc1cc2c(cc1C(=O)CCC(=O)O)CC1(C2)Cc2cc(CC)c(C(=O)CCC(=O)O)cc2C1`
> 100 µM (inactive)

Read off the recorded GI50 for `COc1ccc2nccc(SCC(=O)O)c2c1`
> 100 µM (inactive)

Read off the recorded GI50 for `NC(=O)C[C@H](NC(=O)C1(NC(=O)[C@H](Cc2ccc(CP(=O)(O)O)cc2)NC(=O)C(=O)O)CCCCC1)C(=O)NCCCc1cccc2ccccc12`
> 10 µM (inactive)

Read off the recorded GI50 for `N#C/C(=C\c1ccc(Cl)cc1)c1nc(-c2cc3ccccc3oc2=O)cs1`
90.4 µM (inactive)

Read off the recorded GI50 for CCOC(=O)C(NC(=O)CC(C)C)(Nc1ccc(S(=O)(=O)Nc2nc(C)cc(C)n2)cc1)C(F)(F)F (stereo not drawn)
> 100 µM (inactive)

Read off the recorded GI50 for COc1ccccc1[S+]([O-])Nc1ccccc1 (stereo not drawn)
25.5 µM (inactive)
